# procedure_text: qHTS Assay for Spectroscopic Profiling in A350 Spectral Region
# condition_parameters: Compound autofluorescence, 340/450 nm, Alexa 350 dye-equivalents
About 6,500 (11%) of roughly 59,000 compounds were called active. Not shown: some 15% with an inconclusive outcome. Cut-off read from the data, not from the text of the source: active = max dye-equivalent concentration above about 10 nM; inconclusive = mostly about 1.1 nM to 9.6 nM; inactive = weaker than that. For the sample, actives were picked, then their nearest neighbours and some compounds at random.
Give your call using only these classes: T = active, F = inactive

Ask: Given Cc1ccc(S(=O)(=O)N2CCC(C(=O)OCC(=O)N3CC(=O)Nc4ccccc43)CC2)cc1 , state the outcome it received in this test.
Reply: F

Ask: Next record, please: O=C(CSc1nnc(-c2c[nH]c3ccccc23)n1-c1ccc(F)cc1)NCc1ccco1
Reply: F

Ask: Request: Cc1nnc(SCC(=O)N2CCc3ccccc32)n1-c1ccccc1
Reply: F

Ask: Can you handle O=C(CSc1nnc(-c2cccs2)n1-c1ccccc1)NCc1ccco1 next?
Reply: T

Ask: Again, but for COc1cc(Cl)c(C)cc1NC(=O)CSc1nnc(-c2cccnc2)n1Cc1ccco1
Reply: F

Ask: Try the compound Cc1ccc(-n2c(SCC(=O)Nc3ccc4c(c3)OCO4)nnc2-c2ccoc2C)cc1
Reply: F

Ask: And what about the compound O=C(CSc1nnc(-c2cccs2)n1-c1ccccc1)N1CCN(C(=O)c2ccco2)CC1 ?
Reply: F

Ask: What do you have for Cn1c(=O)c2c(nc(SCC(=O)Nc3ccccc3N3CCCCC3)n2C)n(C)c1=O ?
Reply: F

Ask: And the next one, CCC(=O)Nc1ccc(C(=O)CSc2nnc(CNc3ccc(Cl)cc3)o2)cc1OC ?
Reply: F

Ask: Request: COc1ccc(NC(=O)CN(C)S(=O)(=O)c2ccccc2)cc1OC
Reply: F
